- TARGET_OR_SYSTEM: HEV-MTase (Hepatitis E virus genotype 1, UniProt P33424)
- Sequence (P33424 33-353): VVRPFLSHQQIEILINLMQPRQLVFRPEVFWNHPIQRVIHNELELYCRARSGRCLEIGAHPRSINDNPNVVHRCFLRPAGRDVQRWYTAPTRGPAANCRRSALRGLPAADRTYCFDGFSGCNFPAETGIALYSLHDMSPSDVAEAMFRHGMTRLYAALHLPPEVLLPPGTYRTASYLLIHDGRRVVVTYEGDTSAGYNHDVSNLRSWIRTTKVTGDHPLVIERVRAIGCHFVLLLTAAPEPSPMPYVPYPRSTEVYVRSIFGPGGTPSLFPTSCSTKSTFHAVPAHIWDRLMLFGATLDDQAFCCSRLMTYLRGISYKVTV
ASSAY_READOUT: pIC50
// pIC50 is dimensionless: -log10 of concentration (M)

Prompt line: GET /values?readout=pIC50&item= O=C(O)CCc1ccc(O)cc1 [Compound 1, 3-(4-hydroxyphenyl)propionic acid]
Response line: 6.03

====

- TARGET_OR_SYSTEM: HEV-MTase (Hepatitis E virus genotype 1)
- Construct: made in house; host or cells: E. coli BL21-DE3
- EXPERIMENTAL_DETAILS: MicroScale Thermophoresis (MST) binding affinity
- RUN_PARAMETERS: 50 nM MTase, HPPA 10 μM to 150 pM; read-out: Dissociation constant (Kd)
ASSAY_READOUT: Kd

Prompt line: What measured Kd goes with O=C(O)CCc1ccc(O)cc1 [Compound 1, 3-(4-hydroxyphenyl)propionic acid] ?
Response line: ~2000 nM

Each recorded value in this set is attributed to paper PMC9415367.
